Measured pEC50, listed per entry.
biological target: human CB1 receptors (Homo sapiens (Human), UniProt P21554); assay: cAMP assay, CHO cells expressing human CB1 receptors; format: cell-based; settings: CHO cells expressing human CB1, cAMP; read-out: human CB1 EC50
Sequence (P21554 whole entry): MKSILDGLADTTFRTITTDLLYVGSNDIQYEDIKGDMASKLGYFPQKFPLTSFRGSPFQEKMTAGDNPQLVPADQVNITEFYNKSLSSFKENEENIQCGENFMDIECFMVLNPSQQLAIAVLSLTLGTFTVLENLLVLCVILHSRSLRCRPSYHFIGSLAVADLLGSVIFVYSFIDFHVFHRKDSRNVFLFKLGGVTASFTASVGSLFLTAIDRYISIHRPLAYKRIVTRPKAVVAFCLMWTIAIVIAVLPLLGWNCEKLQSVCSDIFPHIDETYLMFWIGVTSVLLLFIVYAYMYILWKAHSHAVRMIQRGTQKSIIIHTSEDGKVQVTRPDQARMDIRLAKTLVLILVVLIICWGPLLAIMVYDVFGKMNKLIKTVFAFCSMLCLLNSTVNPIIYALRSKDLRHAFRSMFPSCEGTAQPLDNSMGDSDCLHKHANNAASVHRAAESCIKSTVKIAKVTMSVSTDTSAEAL
pEC50: −log10 of the molar value.

| Compound | Result Modifier | pEC50 |
| --- | --- | --- |
| O=C(NN1CCCCC1)c1ccc(C2CC2)c(OCC2CC2)n1 | < | 5.00 |
| CCOC(=O)C(CC)(CC)NC(=O)c1ccc(C2CC2)c(S(=O)(=O)CC(C)C)n1 | = | 7.05 |
| CC(C)C[C@H](NC(=O)c1ccc(C2CC2)c(OCC2CC2)n1)C(=O)N(C)C | = | 6.17 |
| Cc1ccc(C(=O)N[C@@H](CC2CC2)C(N)=O)nc1OCC1CC1 | < | 5.00 |
| COC(=O)[C@H](CC1CC1)NC(=O)c1ccc(C2CC2)c(OCC2CC2)n1 | < | 5.00 |

---

biological target: human CB1 receptors (Homo sapiens (Human)); experiment: cAMP assay, CHO cells expressing human CB1 receptors; format: cell-based; conditions: CHO cells expressing human CB1, cAMP; read-out: human CB1 EC50
Measured EC50, listed per entry.

| Molecule | EC50 |
| --- | --- |
| NC(=O)[C@H](CC1CC1)NC(=O)c1ccc(C2CC2)c(-c2cccc(Cl)c2)n1 | > 10 µM |
| CC(C)C[C@H](NC(=O)c1ccc(N2CC(F)(F)C2)c(OCC2CC2)n1)C(=O)N1CC(F)(F)C1 | > 10 µM |
| CC(C)(NC(=O)c1ccc(Cl)c(-c2cccc(Cl)c2)n1)c1ncon1 | > 10 µM |
| O=C(NC1CCOCC1)c1cccc(-c2cccc(Cl)c2)n1 | > 10 µM |
| CCC(CC)(NC(=O)c1ccc(C2CC2)c(S(=O)(=O)CC(C)C)n1)C(=O)NC | > 10 µM |
| Cc1nc(C2(NC(=O)c3ccc(C4CC4)c(OCc4ccccn4)n3)CCC2)no1 | > 10 µM |
| CNC(=O)[C@@H](NC(=O)c1ccc(C2CC2)c(OCc2ccccn2)n1)C(C)(C)C | > 10 µM |
| COCCOc1nc(C(=O)NC(C)(C)c2noc(C)n2)ccc1C1CC1 | > 10 µM |
| CCC(CC)(NC(=O)c1ccc(C2CC2)c(O[C@@H](CCO)C(F)(F)F)n1)C(=O)NC | > 10 µM |
| COCCOCC(C)(C)NC(=O)c1ccc(C2CC2)c(OCC2CC2)n1 | > 10 µM |
| CNC(=O)C(C)(C)NC(=O)c1ccc(C)c(OCC2CC2)n1 | > 10 µM |
| CNC(=O)C(C)(C)NC(=O)c1ccc(N2CCC(F)(F)C2)c(OCC2CC2)n1 | 0.0058 µM |
| Cc1nc(C(C)(C)NC(=O)c2ccc3c(n2)CC(C)(C)CC3)no1 | 0.739 µM |
| COCCOC[C@H](CC1CC1)NC(=O)c1ccc(N2CC(F)(F)C2)c(OCC2CC2)n1 | > 10 µM |
| Cc1nc(C(C)(C)NC(=O)c2ccc(C3CC3)c(OCc3ccccn3)n2)no1 | > 10 µM |
| CC(C)C[C@H](NC(=O)c1cccc(Cc2ccc(F)cc2)n1)C(N)=O | 1.7 µM |
| Cc1nc([C@](C)(CC2CC2)NC(=O)c2ccc(C3CC3)c(OCC3CC3)n2)no1 | 0.199 µM |
| NC(=O)[C@H](CC1CC1)NC(=O)c1ccc(N(CC(F)(F)F)CC(F)(F)F)c(OCC2CC2)n1 | 0.674 µM |
| O=C(Nc1ccccc1)c1cccc(-c2cccc(Cl)c2)n1 | > 10 µM |
| N#C[C@H](NC(=O)c1ccc(C2CC2)c(OCC2CC2)n1)C1CC1 | > 10 µM |
| CC(C)C[C@H](NC(=O)c1ccc(N2CC(F)(F)C2)c(-c2cccc(Cl)c2)n1)C(N)=O | > 10 µM |
| NC(=O)[C@@H](NC(=O)c1ccc(C2CC2)c(OCC(F)(F)F)n1)c1ccccc1 | > 10 µM |
| CNC(=O)[C@H](CC(C)(C)C)NC(=O)c1ccc(N2CCC23COC3)c(OCC2CC2)n1 | > 10 µM |
| O=C(NN1CCCCC1)c1cccc(C2CCCCC2)n1 | > 10 µM |
| CCOC(=O)C(CC)(CC)NC(=O)c1ccc(Br)c(OCC2CC2)n1 | > 10 µM |
| Cc1nc([C@@H](C)NC(=O)c2ccc(C3CC3)c(OCC3CC3)n2)no1 | > 10 µM |
| CC[C@H](NC(=O)c1ccc(C2CC2)c(OCC2CC2)n1)c1noc(C)n1 | > 10 µM |
| NC(=O)[C@H](CC1CC1)NC(=O)c1ccc(C2CCCC2)c(OCC2CC2)n1 | 1.46 µM |
| CC(C)C[C@H](NC(=O)c1cccc(S(=O)(=O)CC(C)C)n1)C(N)=O | > 10 µM |
| Cc1nc(C(C)(C)NC(=O)c2cccc(-c3ccc(F)c(Cl)c3)n2)no1 | 0.337 µM |
| Cc1cc(C(C)(C)NC(=O)c2cccc(-c3cccc(Cl)c3)n2)on1 | > 10 µM |
| CNC(=O)[C@H](CC(C)(C)C)NC(=O)c1ccc(C2CC2)c(OCC2CCOCC2)n1 | > 10 µM |
| O=C(NC1CCS(=O)(=O)C1)c1ccc(N2CC(F)(F)C2)c(OCC2CC2)n1 (stereo not shown) | > 10 µM |
| CCC(CC)(NC(=O)c1cccc(OCC(F)(F)C(F)(F)F)n1)C(=O)NC | > 10 µM |

---

target: human CB2 receptors (Homo sapiens (Human)); test: cAMP assay, CHO cells expressing human CB2 receptors; type: cell-based; conditions: CHO cells expressing human CB2, cAMP; read-out: human CB2 EC50
Sequence (P34972 whole entry): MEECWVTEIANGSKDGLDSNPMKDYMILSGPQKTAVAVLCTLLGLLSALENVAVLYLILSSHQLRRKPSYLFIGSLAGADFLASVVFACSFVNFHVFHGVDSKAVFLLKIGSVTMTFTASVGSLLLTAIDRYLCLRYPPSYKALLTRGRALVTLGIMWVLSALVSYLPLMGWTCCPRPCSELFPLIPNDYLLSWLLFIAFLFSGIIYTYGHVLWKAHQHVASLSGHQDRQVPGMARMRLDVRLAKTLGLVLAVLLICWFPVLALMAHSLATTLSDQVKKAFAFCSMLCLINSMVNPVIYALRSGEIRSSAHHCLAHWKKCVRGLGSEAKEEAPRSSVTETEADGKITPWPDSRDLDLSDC

| Compound | Measurement Unit | EC50 |
| --- | --- | --- |
| Cn1c(C(C)(C)NC(=O)c2ccc(C3CC3)c(OCC3CC3)n2)noc1=O | nM | 534 |
| O=C(c1ccc(N2CCCC2)c(OCC2CC2)n1)N1CCSCC1 | nM | 16.6 |
| CC(C)[C@](C)(CO)NC(=O)c1ccc(C2CC2)c(OCC2CC2)n1 | nM | 57.7 |
| Cc1nc(C(C)(C)NC(=O)c2ccc(N3CCC34COC4)c(OCC3CC3)n2)no1 | nM | 41.3 |
| CC(C)(C)OC(=O)N(CC1CC1)NC(=O)c1ccc(C2CC2)c(OCC2CC2)n1 | nM | 38 |

---

molecular target: human CB2 receptors (Homo sapiens (Human)); assay: cAMP assay, CHO cells expressing human CB2 receptors; assay type: cell-based; settings: CHO cells expressing human CB2, cAMP; read-out: human CB2 EC50

| Compound | System | Measurement Unit | EC50 |
| --- | --- | --- | --- |
| Cc1nc(C(NC(=O)c2ccc(C(F)(F)F)c(OCC3CC3)n2)C2CC2)no1 (stereo not drawn) [Example 229] | human CB2 receptors (Homo sapiens (Human)) | nM | 52.4 |
| CC(C)(NC(=O)c1ccc(N2CC(F)(F)C2)c(OCC2CC2)n1)c1nccs1 [Example 69] | human CB2 receptors (Homo sapiens (Human)) | nM | 6 |
| CC(C)(NC(=O)c1ccc(N2CCCC2=O)c(OCC2CC2)n1)c1ncco1 [Example 61] | human CB2 receptors (Homo sapiens (Human)) | nM | 1480 |
| Cc1nc(C(C)(C)NC(=O)c2ccc(C3CC3)c(-c3cccc(Cl)c3)n2)no1 [Example 96] | human CB2 receptors (Homo sapiens (Human)) | nM | 95.8 |
| NC(=O)[C@@H](NC(=O)c1ccc(C2CC2)c(OCC2CC2)n1)c1ccc(F)cc1 [Example 328] | human CB2 receptors (Homo sapiens (Human)) | nM | 3.9 |
| CCOC(=O)C(CC)(CC)NC(=O)c1ccc(C2CC2)c(OCC2CC2)n1 [Example 257] | human CB2 receptors (Homo sapiens (Human)) | nM | 2.3 |
| Cc1nc(C(C)(C)NC(=O)c2ccc(N3CCCC3)c(OCC3CC3)n2)no1 [Example 33] | human CB2 receptors (Homo sapiens (Human)) | nM | 23.1 |
| Cc1nc(C2(NC(=O)c3ccc(C4CC4)c(OCC4CC4)n3)CCC2)no1 [Example 171] | human CB2 receptors (Homo sapiens (Human)) | nM | 46.8 |
| O=C(NN1CCCCC1)c1cccc(-c2cccc(Cl)c2)n1 [Example 11] | human CB2 receptors (Homo sapiens (Human)) | nM | 63.6 |

---

biological target: human CB1 receptors (Homo sapiens (Human), UniProt P21554); assay: cAMP assay, CHO cells expressing human CB1 receptors; format: cell-based; settings: CHO cells expressing human CB1, cAMP; read-out: human CB1 EC50
pEC50: −log10 of the molar value.

| Compound | pEC50 |
| --- | --- |
| CC(C)(NC(=O)c1ccc(C2CC2)c(OCC2CC2)n1)c1ncon1 | 5.88 |
| CC(C)(C)C(NC(=O)c1ccc(C2CC2)c(OCC2CC2)n1)C(N)=O (stereo not drawn) | 6.29 |
| CCC(CC)(NC(=O)c1cccc(-c2ccc(Cl)cc2)n1)C(=O)NC | < 5.00 |
| CC(C)(NC(=O)c1cccc(-c2cccc(Cl)c2)n1)c1nccs1 | < 5.00 |
| Cc1nc(C(C)(C)NC(=O)c2ccc(C3CC3)c(OCC3CCOCC3)n2)no1 | 6.21 |
| CC(C)(CO)NC(=O)c1ccc(C2CCOC2)c(OCC2CC2)n1 (stereo not drawn) | < 5.00 |
| Cc1nc(C(C)(C)NC(=O)c2ccc(C3CCOC3)c(-c3cccc(Cl)c3)n2)no1 (stereo not drawn) | < 5.00 |
| Cc1nc([C@H](CC(C)C)NC(=O)c2ccc(C3CC3)c(OCC3CC3)n2)no1 | < 5.00 |
| CC(C)C[C@H](NC(=O)c1cccc(C(O)c2ccc(F)cc2)n1)C(N)=O (stereo partly drawn) | < 5.00 |
| Cc1nc([C@@](C)(CC2CC2)NC(=O)c2ccc(C3CC3)c(OCC3CC3)n2)no1 | 6.31 |
| CCC(CC)(NC(=O)c1ccc(C2CC2)c(OCC2CC2)n1)C(=O)N1CCC1 | 6.45 |
| O=C(Nc1ccccn1)c1cccc(-c2cccc(Cl)c2)n1 | < 5.00 |
| CCC(CC)(NC(=O)c1ccc(C2CC2)c(Cc2ccc(F)cc2)n1)C(=O)O | 7.09 |
| Cc1nc([C@H](CC2CC2)NC(=O)c2ccc(C3CCCC3)c(OCC3CC3)n2)no1 | < 5.00 |
| CNC(=O)[C@@H](NC(=O)c1ccc(C2CC2)c(OCC2CCOCC2)n1)C(C)(C)C | 6.69 |
| Cc1ccc(C(=O)N2CCCCC2)nc1S(=O)(=O)N1CCCCC1 | < 5.00 |
| CCC(CC)(NC(=O)c1ccc(C2CC2)c(OCC2CC2)n1)C(=O)NCCO | < 5.00 |
| O=C(NC1(C(F)(F)F)CC1)c1ccc(N2CC(F)(F)C2)c(OCC2CC2)n1 | < 5.00 |
